Tested on: HeLa
Assay: Evaluation for antiviral activity against polio virus-1 in HeLa cell cultures (Concentration required to reduce virus-induced cytopathogenicity by 50%)
Type: functional
Conditions: Homo sapiens
Recorded MIC for the following compounds
Only the number, expressed in µg/mL, is required.

{"compound": "NC(=O)c1ncn([C@@H]2O[C@H](CO)[C@@H](O)[C@H]2O)n1 [RIBAVIRIN]", "unit_string": "µg/mL", "MIC": 70}

Moving on to the next compound.
Could you share which MIC value was measured for `N[C@@H]1CSCON2CCc3c([nH]c4ccccc34)[C@H]12` ? 0.7

* * *

Tested on: Vero
Assay: Evaluation for antiviral activity against Sindbis virus in Vero cell cultures (Concentration required to reduce virus-induced cytopathogenicity by 50%)
Assay type: functional
Settings: Chlorocebus sabaeus
measurement_type: MIC

{"molecule": "N[C@@H]1CSCON2CCc3c([nH]c4ccccc34)[C@@H]12", "result": "> 10 µg/mL"}
{"molecule": "COc1ccc2[nH]c3c(c2c1)CCN1OCSC[C@@H](N)[C@H]31", "result": "> 1 µg/mL"}
{"molecule": "Cn1c2c(c3ccccc31)CCN1OCSC[C@@H](N)[C@H]21", "result": "> 10 µg/mL"}
{"molecule": "c1ccc2c3c([nH]c2c1)C1CCSCON1CC3 (stereo unspecified)", "result": "> 10 µg/mL"}
{"molecule": "O=c1[nH]c(=O)n([C@H]2C[C@H](O)[C@@H](CO)O2)cc1/C=C/Br", "result": "> 400 µg/mL"}

Consider the record given below.
Given `N[C@H]1CSCON2CCc3c([nH]c4ccccc34)[C@H]12` , state its recorded MIC. > 4 µg/mL

* * *

Experiment: Evaluation for antiviral activity against herpes simplex virus-2(196) in primary rabbit kidney cell cultures(PRK) (Concentration required to reduce virus-induced cytopathogenicity by 50%)
Format: functional
Settings: Oryctolagus cuniculus
Entries and their MIC

{"compound": "Nc1nccc2c1ncn2[C@@H]1C[C@H](CO)[C@@H](O)[C@H]1O", "MIC": "> 200 µg/mL"}

Which MIC reading was recorded for the compound `NC(=O)c1ncn([C@@H]2O[C@H](CO)[C@@H](O)[C@H]2O)n1` ? > 200 µg/mL

Quick one: MIC of c1ccc2c3c([nH]c2c1)C1CCSCON1CC3 (stereo not given) ? > 100 µg/mL

MIC lookup needed for `N[C@@H]1CSCON2CCc3c([nH]c4ccccc34)[C@@H]12` , thanks. > 10 µg/mL

Name the reported MIC value associated with the compound `COc1ccc2[nH]c3c(c2c1)CCN1OCSC[C@@H](N)[C@H]31` > 4 µg/mL
